# Test system: LNCaP
# experiment_notes: SRB colorimetric assay of cell growth and viability, LNCaP
# Format: cell-based, human
# run_parameters: 48 hours exposure; read-out: LC50 LN-caP
Where a SMILES comes first, the peptide text is derived from it. Bridges are numbered along the chain shown (N, C = ends). [ ]: non-standard residue; d: D form. The star is where a group is joined. d(aIle) = CC[C@H](C)[C@@H](N)C(=O)O; d(aThr) = C[C@@H](O)[C@@H](N)C(=O)O; hCha = N[C@@H](CCC1CCCCC1)C(=O)O; Hexanoyl(5-Me) = CC(C)CCCC(=O)*; Orn = NCCC[C@H](N)C(=O)O; Dhb = C/C=C(\N)C(=O)O
quantity: CC50 (µM)
// note: answer is a bare numeric in µM

Note to self: CC50 recorded for C/C=C1\NC(=O)[C@H](Cc2ccccc2)NC(=O)[C@@H](C(C)C)NC(=O)[C@@H]([C@@H](C)CC)NC(=O)[C@H](NC(=O)[C@H](NC(=O)[C@H](CCCCN)NC(=O)[C@H]2CCCN2C(=O)[C@H](NC(=O)[C@@H](NC(=O)[C@@H](NC(=O)[C@H](NC(=O)CC[C@@H](C)CC)C(C)C)[C@@H](C)O)C(C)C)C(C)C)[C@@H](C)CC)[C@@H](C)OC(=O)[C@H](C(C)C)NC1=O [Compound 30, [Lys^8, (4S)-MeHex^14]-KF] was 3.68

Lookup result for C/C=C1\NC(=O)[C@H](Cc2ccccc2)NC(=O)[C@@H](C(C)C)NC(=O)[C@@H]([C@@H](C)CC)NC(=O)[C@H](NC(=O)[C@H](NC(=O)[C@H](CCCN)NC(=O)[C@H]2CCCN2C(=O)[C@H](NC(=O)[C@@H](NC(=O)[C@@H](NC(=O)[C@H](NC(=O)CCCC(C)C)C(C)C)C(C)C)C(C)C)C(C)C)[C@@H](C)CC)[C@@H](C)OC(=O)[C@H](C(C)C)NC1=O [Compound 6, [Val^12]-KF] ({Hexanoyl(5-Me)}-[dV]VV[dV][dP][Orn][d(aIle)][d(aThr)][d(aIle)][dV]F[Dhb]V; ester 8-C) ; measured CC50: 2.78

Form field CC50, entry C/C=C1\NC(=O)[C@H](Cc2ccccc2)NC(=O)[C@@H](C(C)C)NC(=O)[C@@H]([C@@H](C)CC)NC(=O)[C@H](NC(=O)[C@H](NC(=O)[C@H](CCCN)NC(=O)[C@H]2CCCN2C(=O)[C@H](NC(=O)[C@@H](NC(=O)[C@@H](NC(=O)[C@H](NC(=O)CC[C@H](C)CC)C(C)C)[C@@H](C)O)C(C)C)C(C)C)[C@@H](C)CC)[C@@H](C)OC(=O)[C@H](C(C)C)NC1=O [Compound 16, [(4R)-MeHex^14]-KF] : 4.04

Further cases:
For reference, reported CC50 for C/C=C1\NC(=O)[C@H](Cc2ccccc2)NC(=O)[C@@H](C(C)C)NC(=O)[C@@H]([C@@H](C)CC)NC(=O)[C@H](NC(=O)[C@H](NC(=O)[C@H](CCCN)NC(=O)[C@H]2CCCN2C(=O)[C@H](NC(=O)[C@H](CCC2CCCCC2)NC(=O)[C@@H](NC(=O)[C@H](NC(=O)CCCC(C)C)C(C)C)[C@@H](C)O)C(C)C)[C@@H](C)CC)[C@@H](C)OC(=O)[C@H](C(C)C)NC1=O [Compound 9, [hCh^11]-KF] ({Hexanoyl(5-Me)}-[dV]T[hCha][dV][dP][Orn][d(aIle)][d(aThr)][d(aIle)][dV]F[Dhb]V; ester 8-C) stands at 5.85

This collection of values is drawn from patent US20070117743A1.
